biological target: PI3Kγ (Homo sapiens, UniProt P48736); construct: His tag (pFastbac HTb vector) (N); FLAG (N); made in house; host or cells: Sf21 insect cells (baculovirus); test: Biochemical assay using 200 μM ATP, Gamma
Sequence (P48736 whole entry): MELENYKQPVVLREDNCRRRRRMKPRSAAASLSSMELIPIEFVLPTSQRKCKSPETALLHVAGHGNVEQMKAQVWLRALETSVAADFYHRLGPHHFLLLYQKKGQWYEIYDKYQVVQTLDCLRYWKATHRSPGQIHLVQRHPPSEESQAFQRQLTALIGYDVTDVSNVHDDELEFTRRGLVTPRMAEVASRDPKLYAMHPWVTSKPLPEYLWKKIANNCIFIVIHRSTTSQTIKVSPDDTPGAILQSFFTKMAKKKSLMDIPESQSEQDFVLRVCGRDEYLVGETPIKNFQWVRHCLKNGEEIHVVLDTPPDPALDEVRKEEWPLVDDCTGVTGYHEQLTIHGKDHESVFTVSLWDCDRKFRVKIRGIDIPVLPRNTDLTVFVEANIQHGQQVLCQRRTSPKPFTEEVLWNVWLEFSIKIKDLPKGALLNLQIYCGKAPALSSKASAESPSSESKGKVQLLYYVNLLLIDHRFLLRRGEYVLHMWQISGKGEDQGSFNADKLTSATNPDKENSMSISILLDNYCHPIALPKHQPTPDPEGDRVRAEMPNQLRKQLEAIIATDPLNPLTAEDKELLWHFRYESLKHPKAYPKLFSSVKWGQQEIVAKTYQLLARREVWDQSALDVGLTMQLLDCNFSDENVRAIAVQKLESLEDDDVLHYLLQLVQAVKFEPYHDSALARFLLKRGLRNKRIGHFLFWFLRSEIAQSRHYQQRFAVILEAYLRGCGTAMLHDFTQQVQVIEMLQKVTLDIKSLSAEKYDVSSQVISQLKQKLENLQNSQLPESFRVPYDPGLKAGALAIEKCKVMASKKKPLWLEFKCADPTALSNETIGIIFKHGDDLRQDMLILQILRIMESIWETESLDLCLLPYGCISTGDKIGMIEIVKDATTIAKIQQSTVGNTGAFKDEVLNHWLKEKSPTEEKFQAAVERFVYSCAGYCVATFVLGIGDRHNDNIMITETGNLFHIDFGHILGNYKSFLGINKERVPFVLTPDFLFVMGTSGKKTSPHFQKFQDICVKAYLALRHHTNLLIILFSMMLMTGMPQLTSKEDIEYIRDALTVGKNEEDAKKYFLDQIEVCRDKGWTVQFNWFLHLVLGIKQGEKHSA
Attribute: pIC50
When answering, recall that pIC50 equals minus log10 of the concentration in mol/L, and write that number alone.

Here are 3 molecules together with their reported answers.
• Cc1cccc2nc(Cn3cnc4c(N)ncnc43)n(-c3ccccc3Cl)c(=O)c12 = 4.06
• Nc1ncnc2c1ncn2Cc1nc2cccc(Cl)c2c(=O)n1-c1ccccc1-c1ccccc1 = 4.28
• Cc1cccc2nc(CSc3ncnc4[nH]cnc34)n(-c3ccccc3Cl)c(=O)c12 = 4.89

Lab note: next molecule to report on.
**Q:** Query (molecule): O=c1c2cc(F)c(F)cc2nc(CSc2ncnc3[nH]cnc23)n1-c1ccccc1Cl ; field requested: pIC50
**A:** 4.22

###

target: PI3Kγ (Homo sapiens); construct: His tag (pFastbac HTb vector) (N); FLAG (N); made in house; host or cells: Sf21 insect cells (baculovirus); test: Biochemical assay using 200 μM ATP, Gamma
Each record here notes measured log10(IC50).
Field: value | Transform: log10 | Quantity: IC50 | Unit: µM

Answered cases to consult:
• O=c1c2ccccc2nc(CSc2ncnc3[nH]cnc23)n1Cc1ccccc1 = 1.65
• O=c1c2ccccc2nc(CSc2ncnc3[nH]ncc23)n1-c1ccccc1Cl [Compound D-999, reference compound] = 1.95
• CCCCn1c(CSc2ncnc3[nH]cnc23)nc2ccccc2c1=O = 1.74
• O=c1c2cc3ccccc3cc2nc(CSc2ncnc3[nH]cnc23)n1-c1ccccc1Cl = 1.52
• Nc1ncnc2c1ncn2Cc1nc2cccc(Cl)c2c(=O)n1-c1ccccc1Cl = 1.94
• Cc1cccc2nc(CSc3ncnc4[nH]cnc34)n(-c3ccccc3F)c(=O)c12 = 2.19
• Cc1cccc2nc(CSc3ncnc4[nH]cnc34)n(-c3c(Cl)cccc3Cl)c(=O)c12 = 1.53
• Cc1ccccc1-n1c(CSc2ncnc3[nH]cnc23)nc2cccc(Cl)c2c1=O = 0.78

Now take the following molecule into account.
**Q:** # get_value(readout= log10(IC50), system= PI3Kγ (Homo sapiens)) for O=c1c2c(Cl)cccc2nc(CSc2ncnc3[nH]cnc23)n1-c1ccccc1-c1ccccc1
**A:** 1.08
